experiment: NCI Yeast Anticancer Drug Screen. Data for the rad52 strain (AID 147);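 further: 0% = growth of vehicle-treated control cultures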; details: S. cerevisiae rad52 mutant growth inhibition; at 1.2 µM; hits give high values
This is part of a sample that, as a whole, favours compounds with a hit. Of some 79,000 tested, about 15% had one in any assay.
The entries below come with measured growth inhibition values attached.
Reply with just the number (in %).

O=C(O)c1[nH]c(=O)c2ccccc2c1Nc1ccccc1; -2
O=C1C=CC(=Nc2ccccc2)c2ccccc21; 1
Nc1nc(F)nc2c1ncn2C1OC(COP(=O)(O)O)C(O)C1O (stereo not drawn); 2
Cc1cccc(/C=N/NC(=S)N(C)CCc2ccccn2)n1; 96
O=c1[nH]c2ccccc2c2nc3ccccc3n12; -43

Query N#CC(=S)Nc1cccc(Cl)c1 yields growth inhibition of 3

# compound S=c1[nH]c2c(Cl)c(Cl)c(Cl)c(Cl)c2[nH]1 ; its growth inhibition = 13

growth inhibition reported for this compound Cc1ccccc1NC(=O)Cc1csc(N/N=C2\NC(=O)/C(=C/c3cccc([N+](=O)[O-])c3)S2)n1 : 2

* * *

test: NCI Yeast Anticancer Drug Screen. Data for the mlh1 strain (AID 171);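 further: 0% = growth of vehicle-treated control cultures of the same strain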; settings: S. cerevisiae mlh1 strain growth inhibition; at 100.0 µM; hits give high values
This is part of a sample that, as a whole, favours compounds with a hit. Of some 79,000 tested, about 15% had one in any assay.
Measured parameter: growth inhibition (%)
Respond with the bare value in %.

CC(=O)C1=C(C)O/C(=C/c2cccc(Cl)c2)C1=O; 75
Cc1cccc(/C=N/NC(=S)N(C)CCc2ccccn2)n1; 99
COc1ccc(N=N/C(=N\NC(=O)c2cc(Br)ccc2O)c2ccc(N(CCC#N)CCC#N)cc2OC)cc1; 69
CC1=CCC(C(C)(C)c2ccc(O)cc2)CC1 (configuration not stated); 98
COc1ccc(/C=C(\NC(=O)c2ccccc2)C(=O)NN(C)c2ccnc3cc(Cl)ccc23)cc1OC; 25

Record O=C1C=CC(=Nc2ccccc2)c2ccccc21 , field growth inhibition: 82

Consider CCCCCC#CCOC(=O)C(=[N+]=[N-])P(=O)(c1ccccc1)c1ccccc1 . Its measured growth inhibition is 97

Record CN(N=O)C(=O)N[C@@H](C=O)[C@@H](O)[C@H](O)[C@H](O)CO , field growth inhibition: 0

Data point: N#CSC1CCCCNC1=O (configuration not stated) ; growth inhibition = 98

Consider O=S(=O)(c1cc(Cl)ccc1O)c1cc(Cl)ccc1O . Its measured growth inhibition is 99

Record Cc1c(-c2ccccc2)[nH]c2ccccc12 . Reported growth inhibition: 98

For this compound ( CCCc1[nH]nc(C(N)=O)c1N=NN(C)C ), measured growth inhibition is 11

// field: growth inhibition; key: CSc1s[s+]c(SC)c1-c1ccccc1 ; value = 13

The reported growth inhibition of the compound COc1ccc(N2C(=O)CC(Cl)C2=O)cc1 (configuration not stated) was 100

Please fill in: growth inhibition reported for O=C(CNS(=O)(=O)Cc1ccccc1)NNc1ccccc1 = 24

Measured growth inhibition of O=C1NC(c2c(Cl)cccc2Cl)Nc2ccccc21 (configuration not stated) : 87

The compound listed as Cc1ccc2c(ccc(/C=C/c3ccc(O)c4ncccc34)[n+]2C)c1 shows growth inhibition equal to 78

Per the records, this compound ( O=[N+]([O-])c1c(/C=N/Nc2ccccc2)oc(-c2ccc3c(c2)OCO3)c1-c1ccc2c(c1)OCO2 ) has growth inhibition equal to 73

* * *

assay: NCI Yeast Anticancer Drug Screen. Data for the rad50EPP+ strain (AID 151);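 further: 0% = growth of vehicle-treated control cultures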; conditions: S. cerevisiae rad50 mutant strain, at 100.0 µM, hits give high values
About 79,000 compounds went through this panel and 15% of them were active in at least one assay; those are over-represented in the sample as a whole.
Measured parameter: growth inhibition (%)
# value in %; strip the unit string

Value of growth inhibition reported for the compound COc1ccc(/C=C(\NC(=O)c2ccccc2)C(=O)NN(C)c2ccnc3cc(Cl)ccc23)cc1OC is 78

The value of growth inhibition measured for the compound CN(Cc1cnc2nc(N)nc(N)c2n1)c1ccc(C(=O)NC(CCC(=O)O)C(=O)O)c2ccccc12 (configuration not stated) turned out to be 79

Field growth inhibition (entry CCNc1ccc2c(c1)C(=O)N(OS(C)(=O)=O)C2=O ) reads 27

growth inhibition reading for Oc1ccc(C=Nc2ccccc2O)cc1 : 94

The compound CC(=O)CC(=O)/C=C/c1cccs1 showed growth inhibition equal to 92

Reported growth inhibition ( Nc1ccc(CCl)cc1Cc1c(O)ccc2ccccc12 ) = 74

Quick note, growth inhibition for O=C(O)c1ccccc1.[Ag] landed at 98

* * *

experiment: NCI Yeast Anticancer Drug Screen. Data for the bub3 strain (AID 167); details: S. cerevisiae bub3 mutant strain, at 50.0 µM, hits give high values
The panel holds about 79,000 compounds, 15% with a hit somewhere; the sample as a whole holds those more often.
Outcome label depends on growth inhibition relative to 80%: at/above gives condition met, below gives condition not met.

// below: answered molecules
Cc1c(-c2ccccc2)[nH]c2ccccc12; condition met
N#C/C(=C\c1ccccc1)c1ccccc1F; condition not met
O=[N+]([O-])c1c(/C=N/Nc2ccccc2)oc(-c2ccc3c(c2)OCO3)c1-c1ccc2c(c1)OCO2; condition met
COC(=O)CSc1nnc(CSc2ccc(Cl)cc2)n1-c1ccccc1; condition not met
CN(CC(=O)O)c1ccc(/C=C/c2ccnc3ccccc23)cc1; condition not met
N#C/C(=C1C=C/C(=N/O)c2ccccc2/1)c1ccccc1; condition met
CN(C)CCN1C(=O)c2cccc3cc([N+](=O)[O-])cc(c23)C1=O; condition not met
O=C1C=CC(=O)N1c1ccc(N2C(=O)C=CC2=O)cc1; condition met
CC(C)(O)c1ccccc1C(c1ccccc1)c1ccccc1; condition not met

Would you say O=[N+]([O-])c1cc(S(=O)(=O)Nc2ccccc2)ccc1Cl shows growth inhibition at minimum 80%? condition met

* * *

test: NCI Yeast Anticancer Drug Screen. Data for the wt2 strain (AID 169);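 further: 0% = growth of vehicle-treated yeast cultures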; details: S. cerevisiae wt2 strain growth inhibition; at 11.0 µM
The panel holds about 79,000 compounds, 15% with a hit somewhere; the sample as a whole holds those more often. Activity calls are given as the source filed them. Rule as the data show it: active = growth inhibition above about 70%; inactive = the rest.
// allowed return values: active, inactive

Some solved cases for reference:
S=c1[nH]nc(-c2ccc(Cl)cc2)s1; inactive
N#C/C(=C1C=C/C(=N/O)c2ccccc2/1)c1ccccc1; inactive
OCCN(CCO)c1ccc2c(c1)Cc1ccccc1-2; inactive

Query: recorded result category for O=[N+]([O-])/C(C(Cl)=C(Cl)Cl)=C1/OCCS1 in this test active

So what was the verdict on CN(C)c1ccc(/C=C/c2ccnc3ccccc23)cc1N in this test? inactive

Name the outcome recorded for O=C(O)c1ccccc1.[Ag] in the assay. active

Just curious, what result did C/C(=N\NC(=S)NC1CCCC1)c1ccccn1 get here? active

For COc1cc(NCc2ccc3nc(N)nc(N)c3c2C)cc(OC)c1OC , what call appears in the results of this test? inactive

Any idea what this test logged for Nc1nc(N)c2cc(Sc3ccc4ccccc4c3)ccc2n1 ? inactive

Field: outcome | Entry: CN(N=O)c1ccc(/C=C/c2ccnc3ccccc23)cc1 inactive

# lookup: test call for CCC(C)(c1ccc(O)c(C)c1)c1ccc(O)c(C)c1 inactive

Lab log entry: COc1ccc(/C=C2\SC(=S)N(C=C3C(=O)NC(=S)NC3=O)C2=O)cc1OC — outcome as called in the assay? inactive

* * *

Below: a set of entries, each annotated with reported growth inhibition.
test: NCI Yeast Anticancer Drug Screen. Data for the rad50EPP+ strain (AID 151);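 further: 0% = growth of vehicle-treated control cultures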; conditions: S. cerevisiae rad50 mutant strain, at 100.0 µM, hits give high values
About 79,000 compounds went through this panel and 15% of them were active in at least one assay; those are over-represented in the sample as a whole.
# number only, unit % dropped from output

C/C=C/[P+](c1ccccc1)(c1ccccc1)c1ccccc1; 16
CCCCCC#CCOC(=O)C(=[N+]=[N-])P(=O)(c1ccccc1)c1ccccc1; 6
COc1cc(NCc2ccc3nc(N)nc(N)c3c2C)cc(OC)c1OC; 27

What the record says about N#Cc1sc2c(c1OC(=O)c1ccco1)c(=O)n(-c1ccccc1)c(=S)n2-c1ccccc1 : growth inhibition is 5

// field: growth inhibition; key: COC(=O)c1n[nH]c(C)c1N=NN(C)CCC#N ; value = 99

# growth inhibition (molecule: Clc1nc(C(Cl)Cl)nc2sc3c(c12)CCCC3 ) is -2

Lookup result for Clc1c(Cl)c(Cl)c2c(nnn2C2CCCO2)c1Cl (stereo not given) ; measured growth inhibition: 35

For NP1(Oc2ccc(F)cc2)=NP(N)(Oc2ccc(F)cc2)=NP(Oc2ccc(F)cc2)(Oc2ccc(F)cc2)=N1 (stereo not given) the molecule record lists growth inhibition as 1

Lab book: growth inhibition of Cc1onc(-c2ccccc2Cl)c1C1=N/C(=C/c2cc(Cl)cc(Cl)c2O)C(=O)O1 noted as -25

Per the records, this molecule ( CN(N=O)C(=O)N[C@@H](C=O)[C@@H](O)[C@H](O)[C@H](O)CO ) has growth inhibition equal to 3

Sourced from PubChem BioAssay (NCI)
